Please provide measured inhibition for the entries that follow.
- Species on record: Bos taurus
- protocolDescription: Inhibition of bovine kidney TNAP relative to control
- Set-up: concentration or dose not given beside the values
- testSettings: concentration not given here
API: value field is a number in %; no unit string.

Query :: Consider the molecule CCOC(=O)c1s/c(=N\C(=O)c2ccco2)oc1C and give its measured inhibition.
Result :: 45.7

Query :: Consider the molecule CCOC(=O)c1s/c(=N\C(=O)c2ccccc2C)oc1C and give its measured inhibition.
Result :: 28.8

Query :: Consider the molecule CCOC(=O)c1s/c(=N\C(=O)c2cc(OC)c(OC)c(OC)c2)oc1C and give its measured inhibition.
Result :: 47.1

Query :: Consider the molecule CCOC(=O)c1s/c(=N\C(=O)c2ccccc2[N+](=O)[O-])oc1C and give its measured inhibition.
Result :: 44.5
